Listing of recorded pKd by entry.
systemUnderTest: T1, human VEGF (hVEGF) (human, UniProt P15692 181-395)
T1 construct: also called VEGF-A
T1 sequence: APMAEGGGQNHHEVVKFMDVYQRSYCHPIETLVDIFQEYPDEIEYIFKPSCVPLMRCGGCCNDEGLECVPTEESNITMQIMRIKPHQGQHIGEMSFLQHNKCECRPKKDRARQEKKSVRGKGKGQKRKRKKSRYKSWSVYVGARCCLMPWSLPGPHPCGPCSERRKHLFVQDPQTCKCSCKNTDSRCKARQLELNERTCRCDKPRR
assay: SPR single-cycle
Kindly note that pKd refers to -log10 of the concentration in mol/L and answer with the value alone.

Example entries and their recorded answers appear below.
[
  {
    "binder": "G6.31 LC-T97N (Fab, V domains shown, Fab) VH: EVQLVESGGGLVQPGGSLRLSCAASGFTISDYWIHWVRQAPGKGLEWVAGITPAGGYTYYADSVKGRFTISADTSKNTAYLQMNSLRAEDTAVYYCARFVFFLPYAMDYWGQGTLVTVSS VL: DIQMTQSPSSLSASVGDRVTITCRASQDVSTAVAWYQQKPGKAPKLLIYSASFLYSGVPSRFSGSGSGTDFTLTISSLQPEDFATYYCQQGYGNPFNFGQGTKVEIK",
    "experimentalEndpoint": "pKd",
    "result": 8.73
  },
  {
    "binder": "G6.31 HC-Y58R (Fab, name in Kabat numbering, V domains shown, Fab) VH: EVQLVESGGGLVQPGGSLRLSCAASGFTISDYWIHWVRQAPGKGLEWVAGITPAGGYTRYADSVKGRFTISADTSKNTAYLQMNSLRAEDTAVYYCARFVFFLPYAMDYWGQGTLVTVSS VL: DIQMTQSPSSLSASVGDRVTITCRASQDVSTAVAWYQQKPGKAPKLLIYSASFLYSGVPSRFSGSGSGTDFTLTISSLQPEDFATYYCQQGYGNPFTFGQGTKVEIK",
    "experimentalEndpoint": "pKd",
    "result": 9.77
  }
]

Moving on to another binder below.
Specify measured pKd for G6.31 HC-T73N (Fab, name in Kabat numbering, V domains shown, Fab) VH: EVQLVESGGGLVQPGGSLRLSCAASGFTISDYWIHWVRQAPGKGLEWVAGITPAGGYTYYADSVKGRFTISADNSKNTAYLQMNSLRAEDTAVYYCARFVFFLPYAMDYWGQGTLVTVSS VL: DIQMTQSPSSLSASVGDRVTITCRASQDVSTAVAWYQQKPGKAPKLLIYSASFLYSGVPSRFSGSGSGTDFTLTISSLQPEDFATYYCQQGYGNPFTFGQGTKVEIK .
9.07
